Target: T1, 4H470-bN
T1 chain: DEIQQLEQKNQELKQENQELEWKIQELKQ
Assay: two-hybrid library CCNG1;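 further: natural log of median RNA to DNA barcode read ratio; higher means stronger binding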
Response key: class 1 means interaction score >= -0.6; class 0 means interaction score < -0.6.

Examples with answers:
| Binder | Assigned Class |
| --- | --- |
| DEIQQLEQKIQELKQENQELEWKNQELKQ [4H344-bN] | class 1 |
| DEIQQLEQKIQELKQKIQELKWENQELEQ [4H363-bN] | class 0 |
| DKIQQLKQENQELEQKNQELKWEIQELEQ [4H2745-bN] | class 1 |
| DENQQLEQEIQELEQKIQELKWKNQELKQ [4H1072-bN] | class 1 |
| DKIQQLKQEIQELEQEIQELEWKNQELKQ [4H2568-bN] | class 1 |
| DKNQQLKQKIQELKQEIQELEWENQELEQ [4H3907-bN] | class 0 |
| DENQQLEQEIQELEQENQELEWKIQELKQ [4H1046-bN] | class 1 |
| DEIQQLEQKNQELKQENQELEWKIQELKQ [4H470-bN] | class 1 |

Let's switch to this binder now.
Tell me whether interaction score is at least -0.6 here: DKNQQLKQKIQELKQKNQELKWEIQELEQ [4H3961-bN]
class 0
